Cited source: patent US10323045B2

TGT: Recombinant Human NF-kappaB-inducing Kinase (NIK/MAP3K14) (Homo sapiens)
Sequence (Q99558 whole entry): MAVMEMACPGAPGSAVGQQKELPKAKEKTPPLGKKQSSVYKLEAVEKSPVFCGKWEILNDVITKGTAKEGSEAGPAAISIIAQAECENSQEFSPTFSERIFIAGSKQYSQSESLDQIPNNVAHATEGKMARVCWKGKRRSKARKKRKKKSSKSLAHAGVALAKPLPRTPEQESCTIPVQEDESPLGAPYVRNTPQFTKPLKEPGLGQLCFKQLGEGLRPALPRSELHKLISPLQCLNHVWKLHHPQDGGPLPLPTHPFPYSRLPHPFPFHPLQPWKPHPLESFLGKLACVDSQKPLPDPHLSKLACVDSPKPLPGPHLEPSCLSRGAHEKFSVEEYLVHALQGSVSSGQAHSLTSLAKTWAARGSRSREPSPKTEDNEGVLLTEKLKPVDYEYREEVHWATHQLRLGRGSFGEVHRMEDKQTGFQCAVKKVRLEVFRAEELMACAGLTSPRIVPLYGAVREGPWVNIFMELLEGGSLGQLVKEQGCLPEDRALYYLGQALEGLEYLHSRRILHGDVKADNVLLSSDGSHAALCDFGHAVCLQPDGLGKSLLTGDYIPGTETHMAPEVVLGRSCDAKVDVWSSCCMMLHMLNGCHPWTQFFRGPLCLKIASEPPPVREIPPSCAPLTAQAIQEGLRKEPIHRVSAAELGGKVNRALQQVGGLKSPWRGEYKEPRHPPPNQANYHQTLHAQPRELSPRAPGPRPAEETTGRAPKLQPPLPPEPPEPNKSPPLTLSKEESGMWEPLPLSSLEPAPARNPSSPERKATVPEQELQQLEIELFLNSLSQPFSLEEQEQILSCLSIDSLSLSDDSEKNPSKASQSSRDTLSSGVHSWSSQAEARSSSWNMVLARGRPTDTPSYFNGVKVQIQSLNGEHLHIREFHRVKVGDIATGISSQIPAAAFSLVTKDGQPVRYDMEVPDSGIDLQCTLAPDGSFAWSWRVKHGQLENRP
EXPERIMENTAL_PROTOCOL: Inhibition of auto-phosphorylation of recombinant human NIK/MAP3K14 (AlphaScreen)
SETTINGS: GST-tagged NIK/MAP3K14 0.2 nM, 25 microM ATP, 1 h at 25° C.; averaged over all measurements on all batches; read-out: Alpha-Screen IC50
yes (1) if IC50 is below 40 nM. no (0) if not; exact matches included in no (0).

COMPOUND | QUALITATIVE_LABEL
CC(C)c1cn(-c2nc(N)nc3ccsc23)c2cc(C#CC(C)(C)O)ncc12 | yes (1)
[2H]C([2H])([2H])C(O)(C#Cc1cc2c(-c3nc(N)nc4ccsc34)cn(C3CCN(CC)C3)c2cn1)C([2H])([2H])[2H] (stereo not shown) | yes (1)
CC(C)(O)C#Cc1cc2c(-c3nc(N)nc4ccsc34)cn(C3COC3)c2cn1 | yes (1)
CC(C)(O)C#Cc1cc2c(cn1)c(CCC(C)(C)O)cn2-c1nc(N)nc2ccsc12 | yes (1)
CC(O)(C#Cc1cc2c(-c3nc(N)nc4ccsc34)cn(C3CN(C4CC4)C3)c2cn1)C1CC1 (single isomer, unassigned) | yes (1)
COCCCc1cn(-c2nc(N)nc3ccsc23)c2cc(C#CC(C)(C)O)ncc12 | yes (1)
[2H]C([2H])([2H])C(O)(C#Cc1cc2c(-c3nc(N)nc4ccsc34)cn(C3CCCN(CC)C3)c2cn1)C([2H])([2H])[2H] (stereo not shown) | no (0)
[2H]C([2H])([2H])C(O)(C#Cc1cc2c(-c3nc(N)nc4ccsc34)cn(C3CN(C4CC4)C3)c2cn1)C([2H])([2H])[2H] | no (0)
CC(O)(C#Cc1cc2c(-c3nc(N)nc4ccsc34)cn(C3CCN(C4CC4)CC3)c2cn1)C1CC1 (stereo not shown) | no (0)
CC(C)(O)C#Cc1cc2c(ccn2-c2nc(N)nc3ccsc23)cn1 | yes (1)

----------
TGT: Recombinant Human NF-kappaB-inducing Kinase (NIK/MAP3K14) (Homo sapiens)
EXPERIMENTAL_PROTOCOL: Inhibition of auto-phosphorylation of recombinant human NIK/MAP3K14 (AlphaScreen)
SETTINGS: GST-tagged NIK/MAP3K14 0.2 nM, 25 microM ATP, 1 h at 25° C.; averaged over all measurements on all batches; read-out: Alpha-Screen IC50
pIC50: −log10 of the molar value.

COMPOUND | TGT | pIC50
CN1CCC(c2cn(-c3nc(N)nc4ccsc34)c3cc(C#CC(C)(C)O)ncc23)CC1 | Recombinant Human NF-kappaB-inducing Kinase (NIK/MAP3K14) (Homo sapiens) | 6.85
[2H]C([2H])([2H])C(O)(C#Cc1cc2c(-c3nc(N)nc4ccsc34)cn(CC3CCCN3CC)c2cn1)C([2H])([2H])[2H] (stereo not shown) | Recombinant Human NF-kappaB-inducing Kinase (NIK/MAP3K14) (Homo sapiens) | 7.24
COCCCn1cc(-c2nc(N)nc3ccsc23)c2cc(C#CC(C)(C)O)ncc21 | Recombinant Human NF-kappaB-inducing Kinase (NIK/MAP3K14) (Homo sapiens) | 7.72
[2H]C([2H])([2H])C(O)(C#Cc1cc2c(-c3nc(N)nc4ccsc34)cn(C3CCN(C4CC4)CC3)c2cn1)C([2H])([2H])[2H] | Recombinant Human NF-kappaB-inducing Kinase (NIK/MAP3K14) (Homo sapiens) | 7.70
